study-target: human P450 1B1 (Homo sapiens)
Sequence (Q16678 whole entry): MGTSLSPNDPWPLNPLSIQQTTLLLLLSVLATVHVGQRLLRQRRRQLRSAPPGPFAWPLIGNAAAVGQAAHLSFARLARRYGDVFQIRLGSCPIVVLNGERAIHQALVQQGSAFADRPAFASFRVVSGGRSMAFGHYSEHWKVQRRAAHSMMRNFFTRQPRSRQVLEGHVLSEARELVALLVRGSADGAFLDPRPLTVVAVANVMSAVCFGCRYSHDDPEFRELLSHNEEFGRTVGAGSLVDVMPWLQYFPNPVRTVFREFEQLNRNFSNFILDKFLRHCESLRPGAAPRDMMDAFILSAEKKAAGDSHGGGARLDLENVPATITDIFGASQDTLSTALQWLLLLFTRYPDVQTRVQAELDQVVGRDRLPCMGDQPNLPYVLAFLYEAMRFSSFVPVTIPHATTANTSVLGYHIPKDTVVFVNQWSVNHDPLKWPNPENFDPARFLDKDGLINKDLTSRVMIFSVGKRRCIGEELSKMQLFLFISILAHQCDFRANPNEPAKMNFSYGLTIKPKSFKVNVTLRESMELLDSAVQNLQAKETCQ
assay-summary: Inhibition of P450 1B1-dependent EROD activity
Format: biochemical
condition-summary: read-out: inhibition of substrate oxidation by P450s (IC50), P450 1B1; 7-ethoxyresorufin O-deethylation, 2.5 µM substrate, bacterial membranes; means ± SD
recorded-endpoint: IC50 (nM)

1. COc1ccc(-c2cc(=O)c3c(O)cc(O)cc3o2)cc1OC [3’4’DM57DHF, 3’4’-dimethoxy-5,7-dihydroxyflavone] :: 19

---

study-target: human P450 3A4 (Homo sapiens, UniProt P08684)
Sequence (P08684 whole entry): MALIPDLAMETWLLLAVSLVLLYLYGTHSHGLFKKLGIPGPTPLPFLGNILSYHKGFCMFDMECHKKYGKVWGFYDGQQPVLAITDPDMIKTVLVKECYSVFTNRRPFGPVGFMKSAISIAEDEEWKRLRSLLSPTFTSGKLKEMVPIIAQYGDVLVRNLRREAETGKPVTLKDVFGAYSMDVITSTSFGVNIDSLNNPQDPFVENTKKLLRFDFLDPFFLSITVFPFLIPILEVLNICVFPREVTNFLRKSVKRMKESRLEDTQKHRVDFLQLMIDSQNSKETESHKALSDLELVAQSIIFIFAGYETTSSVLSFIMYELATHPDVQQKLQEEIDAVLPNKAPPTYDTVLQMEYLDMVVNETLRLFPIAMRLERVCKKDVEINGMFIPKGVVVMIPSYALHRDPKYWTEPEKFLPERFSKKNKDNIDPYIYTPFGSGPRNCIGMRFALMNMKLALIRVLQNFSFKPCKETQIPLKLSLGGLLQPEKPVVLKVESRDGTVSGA
assay-summary: Effect on P450 3A4-catalyzed midazolam 1’-hydroxylation
recorded-endpoint: effect on formation of 1’-hydroxymidazolam by P450 3A4, in words

1) O=c1c(O)c(-c2ccccc2)oc2cc(O)cc(O)c12 [357THF, 3,5,7-trihydroxyflavone] :: slightly activated
2) COc1ccc(-c2cc(=O)c3c(O)cc(O)cc3o2)cc1 [4’M57DHF, 4’-methoxy-5,7-dihydroxyflavone] :: slightly activated

FYI, the data here is from paper PMC3072440.
